Listed here are compounds together with their documented MIC.
system: Escherichia coli; experiment: Antibacterial activity against Escherichia coli ATCC 25922 assessed as bacterial growth inhibition incubated for 20 hrs by broth microdilution method; format: functional
Positions of bridges follow the written chain, without caps; N, C: chain ends. Non-standard residues stand in square brackets, D forms with d. Residues, ends and D or L forms follow the SMILES beside them. *: point of attachment. Phe(2-F) = N[C@@H](Cc1ccccc1F)C(=O)O; d(hhPhe) = N[C@H](CCCc1ccccc1)C(=O)O; Octanoyl = CCCCCCCC(=O)*; Dab = NCC[C@H](N)C(=O)O

Some compounds with recorded MIC:
{"columns": ["compound", "MIC"],
 "data": [
  ["CCCCCCCC(=O)N[C@@H](CCN)C(=O)N[C@H](C(=O)N[C@@H](CCN)C(=O)N[C@H]1CCNC(=O)[C@H]([C@@H](C)O)NC(=O)[C@H](CCN)NC(=O)[C@H](CCN)NC(=O)[C@H](Cc2ccccc2F)NC(=O)[C@@H](CC(C)C)NC(=O)[C@H](CCN)NC1=O)[C@@H](C)O (Octanoyl-[Dab]T[Dab][Dab][Dab][dL][Phe(2-F)][Dab][Dab]T; lactam 4-C)", "0.06 µg/mL"],
  ["CCCCCCCC(=O)N[C@@H](CCN)C(=O)N[C@H](C(=O)N[C@@H](CCN)C(=O)N[C@H]1CCNC(=O)[C@H]([C@@H](C)O)NC(=O)[C@H](CCN)NC(=O)[C@H](CCN)NC(=O)[C@H](CC(C)C)NC(=O)[C@@H](CCCc2ccccc2)NC(=O)[C@H](CCN)NC1=O)[C@@H](C)O (Octanoyl-[Dab]T[Dab][Dab][Dab][d(hhPhe)]L[Dab][Dab]T; lactam 4-C)", "< 0.125 µg/mL"]
]}

Could you now look at the following compound, please?
Task: Test system Escherichia coli; read-out MIC; what value for CCCCCCCC(=O)N[C@@H](CCN)C(=O)N[C@H](C(=O)N[C@@H](CCN)C(=O)N[C@H]1CCNC(=O)[C@H]([C@@H](C)O)NC(=O)[C@H](CCN)NC(=O)[C@H](CCN)NC(=O)[C@H](CC(C)C)NC(=O)[C@@H](Cc2ccc(Br)cc2)NC(=O)[C@H](CCN)NC1=O)[C@@H](C)O ?
Result: < 0.125 µg/mL
